Test system: RXF-631 renal
Method Description: NCI tumour cell line growth inhibition, 48 h
Quantity Name: TGI (µM)

NC1=NC(c2ccccc2)CC(c2cc(Cl)cc(Br)c2O)=N1 (centres undefined)    39.8
CC(=O)NC1C(OCc2ccccc2)OC(COC(=O)CCCCCNc2ccc([N+](=O)[O-])c3[nH]c4ccc(O)cc4c(=O)c23)C(O)C1OC(C)C(=O)N[C@@H](C)C(=O)N[C@H](CCC(=O)OCc1ccccc1)C(N)=O (some centres undefined)    5.35
CC(=O)O[C@H]1CCC2[C@@H]3CCC4Nc5c(cnn5-c5ccccc5)C[C@]4(C)C3CC[C@@]21C (some centres undefined)    42.2

----------
Test system: SN12C renal
Method Description: NCI tumour cell line growth inhibition, 48 h
# TGI per record follows
Quantity Name: TGI

Cc1ccc([N+](=O)[O-])cc1S(=O)(=O)Nc1ccc(C2=NNC(c3cccs3)C2)cc1 (centres undefined)    90.6 µM
COc1ccc(-c2nc(N)c3ncn(C4OC(CO)C(O)C4O)c3n2)cc1 (centres undefined)    > 100 µM
O=C1/C(=C/c2ccccc2)CN(CCC(=O)N2C/C(=C\c3ccccc3)C(=O)/C(=C/c3ccccc3)C2)C/C1=C\c1ccccc1    > 95.9 µM
O=CC1OC(=O)c2cc(O)c(O)c(O)c2-c2c(cc(O)c(O)c2O)C(=O)OC1C(O)C(O)CO (centres undefined)    > 100 µM
CC(C(=O)c1ccccc1)C1(O)C(=O)Nc2ccccc21 (centres undefined)    > 100 µM
COc1cc([C@@H]2c3cc4c(cc3[C@H](OC(C)=O)[C@H]3COC(=O)[C@H]23)OCO4)cc(OC)c1OC    > 100 µM
CC1(C)C(=O)C2(OS(=O)(=O)C(F)(F)F)CCC1C2 (centres undefined)    > 100 µM
N#CC(N=Nc1ccccc1)c1nc2ccccc2o1 (centres undefined)    > 100 µM
O=C(N/C(=C\c1ccc([N+](=O)[O-])cc1)c1nc2ccc(Cl)cc2[nH]1)c1ccccc1    41.9 µM
CCOC(=O)COc1c(OC)cc(C2C3=C(COC3=O)Oc3cc4c(cc32)OCO4)cc1OC (centres undefined)    > 73 µM
O=C1/C(=C/c2cccs2)NC(=S)N1CN1CCOCC1    > 100 µM
CCCCCCCC(=O)OCC1OC(n2cc(F)c(=O)[nH]c2=O)C(NC(=O)OCc2ccccc2)C(OC(=O)CCCCCCC)C1O (centres undefined)    27.4 µM
O=C(NC1CCN(Cc2ccccc2)CC1)c1cc(C(=O)NC2CCN(Cc3ccccc3)CC2)cc(C(=O)NC2CCN(Cc3ccccc3)CC2)c1    > 50 µM
CCOC(=O)/C=C(\N=P(c1ccccc1)(c1ccccc1)c1ccccc1)C(F)(F)C(F)(F)C(F)(F)C(F)(F)C(F)(F)F    > 100 µM
CCOC(=O)C(C)(C)/C=C\C(Cl)=C(Cl)Cl    > 100 µM
C=C1SC(=Nc2ccccc2Cl)N(C(=O)c2sc3ccccc3c2Cl)C1(C)C    > 100 µM
N=c1oc2ccc(Cl)cc2cc1C(=O)NCc1ccccc1    > 100 µM
N#Cc1nn(C2OC(COC(=O)c3ccccc3)C(OC(=O)c3ccccc3)C2OC(=O)c2ccccc2)c2nc[nH]c(=O)c12 (centres undefined)    > 100 µM
Cc1ccc(C(=O)CCC2C(=O)CC(C)(C)CC2=O)cc1    > 100 µM

Ref: PubChem BioAssay (NCI)
